Cited source for all entries: patent US20230047413A1

biological target: T1, PHF-tau (paired helical filament tau isolated from Alzheimer's disease brain) (human, UniProt P10636-8 2-441, limits assumed, hyper-phosphorylated, aggregated; sites not listed for the preparation); assay: SPR ProteOn, PHF-tau capture-coupled via HT7, 1:1 model
T1 construct: also called enriched PHF-tau; ePHF-tau
T1 sequence (P10636 other isoform, or with tags, fused parts or gaps limits assumed): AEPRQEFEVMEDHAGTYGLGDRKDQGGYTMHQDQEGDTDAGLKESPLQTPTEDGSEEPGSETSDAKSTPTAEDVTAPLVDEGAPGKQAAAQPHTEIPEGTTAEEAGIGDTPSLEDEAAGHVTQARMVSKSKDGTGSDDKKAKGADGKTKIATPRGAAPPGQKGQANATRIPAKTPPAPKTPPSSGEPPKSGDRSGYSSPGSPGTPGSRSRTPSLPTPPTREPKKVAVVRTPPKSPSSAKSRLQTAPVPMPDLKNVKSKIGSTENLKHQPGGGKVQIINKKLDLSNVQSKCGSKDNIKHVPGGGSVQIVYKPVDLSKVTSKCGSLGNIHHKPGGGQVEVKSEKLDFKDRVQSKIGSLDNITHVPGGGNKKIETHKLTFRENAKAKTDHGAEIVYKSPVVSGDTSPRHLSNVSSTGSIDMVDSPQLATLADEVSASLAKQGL
Here the recorded koff is given for each entry.
Express your answer as a number followed by its unit.

Worked set:
• B330 (Fab of B711) (Fab, V domains shown, the Fab's constant parts and tag are not described; also called M330; M333 (the Fab of B711)) VH: QVQLVESGGGVVQPGRSLRLSCAASGFTFTSYAMSWVRQAPGKGLEWVASITKGGNTYYADSVKGRFTISRDNSKNTLYLQMNSLRAEDTAVYYCARGWGIYGWFAYWGQVTLVTVSS VL: DIQMTQSPSSLSASVGDRVTITCKASQDINRWLNWFQQKPGKAPKSLIYRANRLLDGVPSRFSGSGSGTDFTLTISSLQPEDFATYYCLQYDEFPLTFGQGTKLEIK = 7.15e-05 s⁻¹
• B332 (Fab of B809) (Fab, V domains shown) VH: QVQLVESGGGVVQPGRSLRLSCAASGFTFTSYAMSWVRQAPGKGLEWVASITKGGNTYYADSVKGRFTISRDNSKNTLYLQMNSLRAEDTAVYYCARGWGIYGWFAYWGQVTLVTVSS VL: DIQMTQSPSSLSASVGDRVTITCKASQDINRYLNWFQQKPGKAPKSLIYRANRLLDGVPSRFSGSGSGTDFTLTISSLQPEDFATYYCLQYDEFPLTFGQGTKLEIK = 0.00012 s⁻¹
• B324 (Fab of B296) (Fab, V domains shown, also called M324; B296 Fab) VH: QVQLVESGGGVVQPGRSLRLSCAASGFTFSSYAMSWVRQAPGKGLEWVASISKGGNTYYADSVKGRFTISRDNSKNTLYLQMNSLRAEDTAVYYCARGWGDYGWFAYWGQVTLVTVSS VL: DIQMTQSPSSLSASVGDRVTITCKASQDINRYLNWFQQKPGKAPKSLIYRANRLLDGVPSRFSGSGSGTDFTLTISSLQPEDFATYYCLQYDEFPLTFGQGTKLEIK = 9.03e-05 s⁻¹

Below: the item to evaluate.
For the binder B331 (Fab of B333) (Fab, V domains shown) VH: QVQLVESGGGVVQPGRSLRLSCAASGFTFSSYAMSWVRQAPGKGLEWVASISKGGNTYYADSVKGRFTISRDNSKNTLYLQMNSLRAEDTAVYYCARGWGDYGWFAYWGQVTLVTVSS VL: DIQMTQSPSSLSASVGDRVTITCKASQDINRWLNWFQQKPGKAPKSLIYRANRLLDGVPSRFSGSGSGTDFTLTISSLQPEDFATYYCLQYDEFPLTFGQGTKLEIK , give its reported koff.
5.31e-05 s⁻¹
